- Experiment notes: small-molecule microarray binders of probe aDKK1, primary screen, biochemical, biotinylated probe, 635/667 nm fluorescence (AID 1099);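 also: score merges 667nm spot fluorescence with signal to noise across triplicate slides; reference of the scale not given here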
- Cond: higher = more signal
Parameter: composite z-score

Solved cases below.
Compound	Parameter	Recorded result
C=CCN1C(=O)[C@]2(O[C@H](CCn3cc([C@H](O)c4ccccc4)nn3)[C@@H]([Si](C)(C)c3ccc(OC)cc3)[C@@H]2C)c2cc(N3C(=O)c4cccc5cccc3c45)ccc21	composite z-score	-0.168
C=CCC(OC(C)=O)[C@@H]1[C@@H](N(Cc2cc3ccccc3o2)C(=O)Cc2ccc(OC)cc2)c2cc(OCCCO)ccc2N1C(=O)Cc1ccc2ccccc2c1 (some centres undefined)	composite z-score	-0.217
CC(C)C(=C=CC[C@@H](O)c1ccccc1OCCO)C[C@@H](O)c1cc(Cl)cc(Cl)c1O	composite z-score	-0.102

// next entry
input: Query: composite z-score; subject: COC(=O)c1c(CC[C@@H](CO)NC(=O)N[C@@H](Cc2ccccc2)Cn2cc(-c3cncn3C)nn2)oc(C(C)=O)c1C(=O)OC
output: -0.193

====

Listed here: items and their measured composite z-score.
- Experiment notes: small-molecule binders of probe aNOTCH2, primary screen, biochemical, small-molecule microarray, 635/667 nm fluorescence (AID 1121);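 also: score merges feature fluorescence read at 667 nm with its signal to noise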
- Cond: higher = more signal
Please reply with the value in numeric form only.

Solved cases below.
COC(=O)c1ccc([C@H](NC(=O)c2ccccc2)[C@]2(C)C[C@H]2C2CCCCC2)cc1 -0.0282
C=CC[C@@]1(C(=O)N(C)C)N=C(c2ccc(OCCCO)cc2)O[C@@H]1c1ccccc1 0.182
NC(=O)[C@@]1(CCS(=O)(=O)c2ccccc2)COC(c2ccc(OCCCO)cc2)=N1 0.327
C=CCN1C(=O)[C@]2(O[C@H](CCO)[C@@H]([Si](C)(C)c3ccc(OC)cc3)[C@@H]2C)c2ccccc21 -0.129
CN(C)CCCC[C@@H]1NC(=O)[C@H]2C[C@@H](C(=O)O)[C@@H](c3cccc(OCCO)c3)N2C1=O 0.124

input: Query: composite z-score; subject: CCOC(=O)C1=C(C(=O)OCC)N(S(=O)(=O)CC[Si](C)(C)C)[C@H](c2ccccc2)CC1
output: -0.075

input: Query: composite z-score; subject: COCCOC(=O)N1C(=O)[C@@]2(c3ccccc31)[C@H](C(=O)N1CCCCCCC1)[C@H]1C(=O)O[C@H](c3ccccc3)[C@H](c3ccccc3)N1[C@@H]2c1ccc(O)cc1
output: 0.95

input: Query: composite z-score; subject: O=C(NCC(F)(F)F)[C@@H]1c2ccccc2C(=O)N(CC23CC4CC(CC(C4)C2)C3)[C@H]1c1ccc(CO)cc1
output: -0.147

input: Query: composite z-score; subject: COC(=O)[C@@]1(Cc2ccc(F)cc2)[C@H]2c3cc(C(=O)N(C)C)n(CCN4CCOCC4)c3C[C@H]2CN1C(=O)c1ccccc1
output: 0.739

input: Query: composite z-score; subject: COc1ccc([Si](C)(C)[C@H]2[C@H](CCn3cc([C@H](O)c4ccccc4)nn3)O[C@@]3(C(=O)N(c4ccccc4)c4ccccc43)[C@@H]2C)cc1
output: -0.156

input: Query: composite z-score; subject: CO[C@H]1O[C@H](CO)[C@@H](OC(=O)Nc2ccc3c(c2)OCO3)[C@@H]2OC(=O)[C@@H](Cc3ccccc3)C/C=C/C[C@H](Cc3ccccc3)C(=O)O[C@@H]12
output: 0.0318

input: Query: composite z-score; subject: COc1ccc([Si](C)(C)[C@H]2[C@H](CCO)O[C@@]3(C(=O)N(Cc4ccc(N5CCOC5=O)cc4)c4ccccc43)[C@@H]2C)cc1
output: -0.1

====

- Experiment notes: basal RPMI8226 viability, no added stimulus, profiling panel, cell-based, calcein-AM fluorescence, 48 h, PK04 Diversity Set (AID 1166);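 also: cells grown under basal conditions without added stimulus; test concentration not given here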
- Cond: RPMI8226 myeloma viability, higher = more signal
Listed here: items and their measured z-score.

Solved cases below.
Cc1ccc(S[C@]2(C(=O)NCCCN(C)C)CC(=O)N(Cc3ccccc3Cl)[C@@H]2c2ccc(CO)cc2I)cc1 -3.15
CCCCCCc1nc(-c2ccc(OC)nc2)cc2c1[Si](C(C)C)(C(C)C)OC2 -3.11
C=CC[C@@]1(C(=O)O)N=C(c2ccc(OCCCO)cc2)O[C@@H]1c1ccccc1CN=[N+]=[N-] 0.0466
C=C(/C(=C/C[C@@H](OC(C)=O)c1ccccc1OCCO)c1cc(C(=O)OC)ccc1OC)C(C)C -1.11

// next entry
input: Query: z-score; subject: N[C@@H](Cc1ccccc1)Cn1cc(C2(O)CCCCC2)nn1
output: -0.775

====

- Experiment notes: binders of probe aHhip on microarray, primary screen, stem cell growth factor project, biochemical, small-molecule microarray, fluorescence 635/667 (AID 1087);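 also: score merges spot fluorescence at 667nm with spot signal to noise ratio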
- Cond: higher = more signal
Parameter: composite z-score
Please reply with the value in numeric form only.

Solved cases below.
C=CCOC(=O)[C@H]1[C@@H]2C(=O)O[C@@H](c3ccccc3)[C@@H](c3ccccc3)N2[C@@H](c2ccc(OCCOC(=O)[C@H]3C[C@H]4C(=O)NCC(=O)N4[C@H]3c3ccc(O)cc3)cc2)[C@]12C(=O)Nc1ccc(I)cc12 0.064
C=CCN1C(=O)[C@]2(O[C@H](CCn3cc([C@H](O)c4ccccc4)nn3)[C@@H]([Si](C)(C)c3ccc(OC)cc3)[C@@H]2C)c2cc(N3C(=O)c4cccc5cccc3c45)ccc21 -0.256
COC(=O)[C@@]1(Cc2ccccc2CN=[N+]=[N-])COC(c2ccc(OCCCO)cc2)=N1 -0.137

// next entry
input: Query: composite z-score; subject: CCOC(=O)C[C@H]1[C@H](OC(=O)c2ccc(C(=O)c3ccccc3)cc2)[C@@H](NC(=O)c2ccc3ccccc3c2)c2cc(OCCCO)ccc2N1C(=O)c1ccc2ccccc2n1
output: -0.151

====

- Experiment notes: small-molecule microarray binders of probe aShh, primary screen, biochemical, biotinylated probe, 635/667 nm fluorescence (AID 1114);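 also: probe is biotin-labelled aShh protein from a stem cell growth factor screen; measures binding of labelled protein to compounds printed on the slide; score merges feature fluorescence at 667 nm with signal-to-noise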
- Cond: higher = more signal
Parameter: composite z-score
Please reply with the value in numeric form only.

Solved cases below.
Compound	Parameter	Recorded result
C=C(CCCC)C(=O)CC[C@H](OC(C)=O)c1ccccc1OCCO	composite z-score	0.0121
O=C1C2C=CC(C(O)C(c3ccccc3)c3ccccc3)N(Nc3ccccc3)C2C(=O)N1c1ccccc1 (centres undefined)	composite z-score	0.0068
COC(=O)[C@@]1(Cc2ccc(OC)cc2)[C@H]2c3cc(C(=O)N4CCCC4)n(CCc4ccc(OC)c(Br)c4)c3C[C@H]2CN1C(=O)c1ccccc1	composite z-score	0.865
Cc1c(-c2ccc(-c3ccc(Cl)c(Cl)c3)o2)nc(-c2ccccc2)c2c1CO[Si]2(C(C)C)C(C)C	composite z-score	0.0326
C=CCOC(=O)[C@@H]1[C@H]2C(=O)O[C@H](c3ccccc3)[C@H](c3ccccc3)N2[C@H](c2ccc(OCCOC(=O)[C@H]3C[C@H]4C(=O)NCC(=O)N4[C@H]3c3ccc(O)cc3)cc2)[C@@]12C(=O)Nc1ccc(I)cc12	composite z-score	-0.294

input: Query: composite z-score; subject: C/C=C/CN(C(=O)C#Cc1ccccc1)[C@H](CO[Si](C)(C)C(C)(C)C)c1ccccc1
output: -0.372

input: Query: composite z-score; subject: COc1ccc(CC[C@H](O)c2cccc(OCC(=O)OC(C)(C)C)c2)cc1
output: 0.167

input: Query: composite z-score; subject: COc1ccc(CCNC(=O)[C@@]2(Sc3ccc(C)cc3)CC(=O)N(C(C)C)[C@@H]2c2ccc(CO)cc2)cc1
output: 0.0121

====

- Experiment notes: binders of probe aHhip on microarray, primary screen, stem cell growth factor project, biochemical, small-molecule microarray, fluorescence 635/667 (AID 1087);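 also: score merges spot fluorescence at 667nm with spot signal to noise ratio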
- Cond: higher = more signal
Parameter: composite z-score
Please reply with the value in numeric form only.

Compound	Recorded result
CC(C)C[C@H]1NC(=O)[C@H](Cc2ccccc2)NC(=O)[C@@]23C(=O)N[C@@H](Cc4ccccc4)C2[C@H](C)[C@@]2(C)O[C@H]2C3/C=C/C/C=C\CNC1=O (stereo partly drawn)	0.0626

input: Query: composite z-score; subject: COCCOC(=O)N1C(=O)[C@@]2(c3cc(C#CC4(O)CCCCCC4)ccc31)[C@H](C(=O)NC[C@H](O)c1ccccc1)[C@H]1C(=O)O[C@H](c3ccccc3)[C@H](c3ccccc3)N1[C@@H]2c1ccc(O)cc1
output: 0.176

input: Query: composite z-score; subject: C=CC[C@]1(C(=O)NCCCOC)N=C(c2ccc(OCCCO)cc2)O[C@H]1c1ccccc1
output: -0.0237

====

Listed here: items and their measured z-score.
- Experiment notes: P. aeruginosa biofilm formation inhibitors, primary screen, PAO1 strain, BacTiter-Glo luminescence, LB-PBS (AID 1144)
- Cond: 12 h, higher = more signal
Please reply with the value in numeric form only.

Solved cases below.
Compound	z-score
COCCOC(=O)N1C(=O)[C@@]2(c3cc(C#Cc4ccc(OC)cc4)ccc31)[C@H](C(=O)N1CCCCCCC1)[C@H]1C(=O)O[C@H](c3ccccc3)[C@H](c3ccccc3)N1[C@@H]2c1ccccc1OCCO	-1.4
CC(C)CNC(=O)[C@@H]1c2ccccc2C(=O)N(Cc2ccccc2)[C@H]1c1ccc(CO)cc1	-0.33

input: Query: z-score; subject: Cc1ccc(F)cc1S(=O)(=O)N[C@@H]1CCN(Cc2ccc3c(c2)OCO3)C1
output: -0.455

input: Query: z-score; subject: COc1ccc(NN2C(C(O)c3cc(C(F)(F)F)cc(C(F)(F)F)c3)C=CC3C(=O)N(C4CCCCC4)C(=O)C32)cc1 (configuration not stated)
output: -1.1

input: Query: z-score; subject: O=C(NCCO)C1=C[C@H](Oc2ccccc2I)[C@@H](O)[C@H](NCc2ccc(F)cc2)C1
output: 0.148

input: Query: z-score; subject: COc1cc2c(cc1O)C(c1ccc(CN3CCCC3)cc1)N(Cc1cccc(OC(F)(F)F)c1)CC2 (configuration not stated)
output: 1.15

input: Query: z-score; subject: COCCOC(=O)N1C(=O)[C@@]2(c3cc(C#CCC(C(=O)OC)C(=O)OC)ccc31)[C@H](c1ccc(OCCO)cc1)N1[C@H](c3ccccc3)[C@H](c3ccccc3)OC(=O)[C@H]1[C@@H]2C(=O)N1CCCCCCC1
output: -0.147

Just for reference, PubChem BioAssay is where these values come from.
